Could you please report measured Mean fluorescence intensity for the items listed next?
# targetOfAssay: T1, human TIM-3 on CHOK1 stable cell line (CHOK1-hTIM-3) (human, UniProt Q8TDQ0 22-301)
# T1 sequence: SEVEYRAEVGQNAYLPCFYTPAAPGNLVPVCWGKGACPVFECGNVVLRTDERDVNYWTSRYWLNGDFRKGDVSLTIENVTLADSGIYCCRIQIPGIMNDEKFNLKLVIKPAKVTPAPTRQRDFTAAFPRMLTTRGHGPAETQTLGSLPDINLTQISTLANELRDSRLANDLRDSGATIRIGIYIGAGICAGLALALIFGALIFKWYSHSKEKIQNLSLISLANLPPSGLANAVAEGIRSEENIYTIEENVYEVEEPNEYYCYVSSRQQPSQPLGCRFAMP
# measurementProtocol: FACS, CHOK1-hTIM-3 cells, 0.064 nM antibody
One number for each entry.

{"binder": "134H3G6 fully human TIM-3 antibody (human IgG4, kappa) (antibody, V domains shown) VH: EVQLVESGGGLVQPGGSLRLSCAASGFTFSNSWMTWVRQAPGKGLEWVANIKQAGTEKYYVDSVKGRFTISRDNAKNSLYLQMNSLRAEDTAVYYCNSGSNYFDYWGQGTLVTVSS VL: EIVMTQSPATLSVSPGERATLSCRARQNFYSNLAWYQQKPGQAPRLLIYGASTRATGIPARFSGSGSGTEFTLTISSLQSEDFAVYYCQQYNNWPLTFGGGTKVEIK", "propertyName": "Mean fluorescence intensity", "readoutNumber": 34.5}

Record Mean fluorescence intensity for all entries; do not skip any.
1. 34B6D8 fully human TIM-3 antibody (human IgG4, kappa) (antibody, V domains shown) VH: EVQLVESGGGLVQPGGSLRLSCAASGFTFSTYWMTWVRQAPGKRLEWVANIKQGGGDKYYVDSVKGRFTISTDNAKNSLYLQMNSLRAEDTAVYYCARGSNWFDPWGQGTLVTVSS VL: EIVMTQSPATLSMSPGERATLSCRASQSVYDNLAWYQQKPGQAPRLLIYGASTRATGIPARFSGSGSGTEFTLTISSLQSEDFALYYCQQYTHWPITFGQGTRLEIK
2. 39E5H1 fully human TIM-3 antibody (human IgG4, kappa) (antibody, V domains shown) VH: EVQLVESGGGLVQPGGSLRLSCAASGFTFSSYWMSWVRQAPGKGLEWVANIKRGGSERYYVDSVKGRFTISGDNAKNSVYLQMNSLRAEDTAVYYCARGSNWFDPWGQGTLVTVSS VL: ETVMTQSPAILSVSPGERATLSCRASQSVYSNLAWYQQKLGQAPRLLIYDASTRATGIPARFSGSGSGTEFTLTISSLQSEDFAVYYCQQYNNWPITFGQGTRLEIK
3. 57F4E5 fully human TIM-3 antibody (human IgG4, kappa) (antibody, V domains shown) VH: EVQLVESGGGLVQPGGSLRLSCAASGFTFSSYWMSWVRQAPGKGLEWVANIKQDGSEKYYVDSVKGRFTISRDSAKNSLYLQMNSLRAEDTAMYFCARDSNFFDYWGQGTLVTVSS VL: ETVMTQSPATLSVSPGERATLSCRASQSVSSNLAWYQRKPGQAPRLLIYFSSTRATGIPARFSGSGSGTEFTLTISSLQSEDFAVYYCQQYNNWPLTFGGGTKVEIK
4. 7A4F10 fully human TIM-3 antibody (human IgG4, kappa) (antibody, V domains shown) VH: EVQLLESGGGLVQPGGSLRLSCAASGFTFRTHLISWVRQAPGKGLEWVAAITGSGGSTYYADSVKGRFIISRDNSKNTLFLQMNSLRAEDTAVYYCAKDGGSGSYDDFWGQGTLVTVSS VL: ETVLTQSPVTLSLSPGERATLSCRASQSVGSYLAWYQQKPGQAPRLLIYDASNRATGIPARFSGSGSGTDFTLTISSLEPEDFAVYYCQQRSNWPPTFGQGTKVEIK
5. 18D2H2 fully human TIM-3 antibody (human IgG4, kappa) (antibody, V domains shown) VH: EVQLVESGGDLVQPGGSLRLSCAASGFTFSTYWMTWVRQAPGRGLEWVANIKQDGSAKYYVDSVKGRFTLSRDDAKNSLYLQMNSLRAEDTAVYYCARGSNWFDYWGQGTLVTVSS VL: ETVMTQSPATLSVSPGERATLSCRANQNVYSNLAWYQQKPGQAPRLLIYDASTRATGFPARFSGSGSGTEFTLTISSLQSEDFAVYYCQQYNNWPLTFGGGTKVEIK

22.2
27
23.7
28.8
32.9
